// data source = the supplement of paper PMC10567573

B1: DLC1 (parent)
chain: AIQGISEKEKAEIEAKEACDWLRA

variants of: B1; assay: protein stability index of a GFP-peptide fusion (GPS, HEK-293T) (PSI 1-6); higher = more stable; conditions: c terminus: a fixed tail appended;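 further: lentivirally expressed fusions sorted by FACS into six bins by GFP to DsRed ratio, PSI derived from sequencing read proportions per bin multiplied by bin number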
observable: protein stability index
Give bare numbers.

Answered cases to consult:
entry_sequence="AIQGIIEKEKAEIEAKEACDWLRA [S6I]" reported_value=3.58
entry_sequence="AIQGISEKEKAEIFAKEACDWLRA [E14F]" reported_value=3.78
entry_sequence="NIQGISEKEKAEIEAKEACDWLRA [A1N]" reported_value=5.11
entry_sequence="AIQGIWEKEKAEIEAKEACDWLRA [S6W]" reported_value=3.71
entry_sequence="AIQGISEKERAEIEAKEACDWLRA [K10R]" reported_value=4.04

List the reported protein stability index of each variant below.
1. AIQGISEKEKAEIEAKEACAWLRA [D20A]
2. AIQGISEKEKAEIEAKEACDWLRY [A24Y]
3. AIQKISEKEKAEIEAKEACDWLRA [G4K]
4. AIQGISEKENAEIEAKEACDWLRA [K10N]
5. AICGISEKEKAEIEAKEACDWLRA [Q3C]
6. AIQGISEKEKAEIEACEACDWLRA [K16C]

Data returned:
[3.99, 4.72, 4.26, 4.71, 4.28, 4.14]
